These entries and their values trace back to ChEMBL document CHEMBL1201862.

system: RXF 393; test: NCI tumour cell line growth inhibition, 48 h
Activity calls are given as the source filed them. Rule as the data show it: active = GI50 up to about 1.1 µM and inactive = higher.
Readout Name: GI50

>>> assay_value("C[C@]12CC(c3ccccc3O1)C(C(=O)NC13CC4CC(CC(C4)C1)C3)C(=O)N2 (stereo not given in full)")
"25.6 µM (inactive)"
>>> assay_value("O=C1C2C(C(=O)N1c1ccccc1)C1c3ccccc3C2C2C(=O)N(c3ccccc3)C(=O)C21 (stereo not given)")
"6.04 µM (inactive)"
>>> assay_value("Clc1cccc(N/N=N/c2ccc(-c3nc4ccccc4s3)cc2)c1")
"27.2 µM (inactive)"
>>> assay_value("CN(C)Cc1cc(C(C)(C)C)cc(C2CCCCC2)c1O")
"12.6 µM (inactive)"
>>> assay_value("N#Cc1c(N)c(C(=O)O)nn(-c2cccc(C(F)(F)F)c2)c1=O")
"52.5 µM (inactive)"
>>> assay_value("C/C=C(/C)c1cnc(CC(C)C)c(=O)[nH]1")
"> 100 µM (inactive)"
>>> assay_value("Clc1cccc(Cl)c1C1SCC2=Nc3ccccc3CN21 (stereo not given)")
"27.8 µM (inactive)"
>>> assay_value("CO/C(=C/C(=O)C(Cl)(Cl)Cl)CC/C(=C\\C(=O)C(Cl)(Cl)Cl)OC")
"17.5 µM (inactive)"
>>> assay_value("O=S(=O)(O)c1cc(S(=O)(=O)O)c2c(/N=N/c3ccc(/N=N/c4ccccc4)cc3)c(O)ccc2c1")
"> 100 µM (inactive)"
>>> assay_value("COc1cccc(C2SC(=N)Nc3c2c(C)nn3C(=O)c2ccccc2O)c1 (stereo not given)")
"2.14 µM (inactive)"
